Attribution: patent US20230357447A1

- Experimental target: T1, Anti-CD28 scFv (VH-linker 1-VL) (biotinylated (site not stated))
- T1 construct: biotinylated and captured on neutravidin coated plates in the phage ELISA
- T1 sequence (scFv, as listed by the source): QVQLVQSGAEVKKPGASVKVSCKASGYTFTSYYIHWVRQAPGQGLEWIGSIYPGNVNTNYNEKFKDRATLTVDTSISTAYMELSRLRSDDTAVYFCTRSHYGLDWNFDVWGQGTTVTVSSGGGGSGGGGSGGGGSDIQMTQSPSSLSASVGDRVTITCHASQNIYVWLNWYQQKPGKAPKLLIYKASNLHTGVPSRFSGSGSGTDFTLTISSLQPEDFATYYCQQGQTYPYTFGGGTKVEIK
- Method summary: phage binding ELISA on captured biotinylated anti-CD28 scFv;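 further: crude clonal phage supernatants applied to the wells, bound phage read out with an HRP-conjugated anti-M13 antibody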
Record MET whenever CD28 scFv signal is at 2 or higher; record NOT MET when lower.

[[record]]
binder = "MDFCPRFLWHECFN [Phage-345]"
classification = "NOT MET"

[[record]]
binder = "IDWCPLHLWHECYH [Phage-353]"
classification = "NOT MET"

[[record]]
binder = "IMWCPTSLWNRCVT [Phage-384]"
classification = "NOT MET"

[[record]]
binder = "MDWCPPHLWHECFF [Phage-358]"
classification = "NOT MET"

[[record]]
binder = "MDWCPRILWSDCFN [Phage-373]"
classification = "NOT MET"

[[record]]
binder = "MDWCPRDMWFECFN [Phage-393]"
classification = "MET"

[[record]]
binder = "MDWCPRHLWIECFN [Phage-322]"
classification = "MET"

[[record]]
binder = "MSWCPPYLWTVCYN [Phage-368]"
classification = "NOT MET"

[[record]]
binder = "MDWCPSNMWNECFF [Phage-416]"
classification = "NOT MET"

[[record]]
binder = "MDWCPRLLWHECFN [Phage-357]"
classification = "NOT MET"

[[record]]
binder = "MDWCPRFLWDVCFN [Phage-330]"
classification = "MET"

[[record]]
binder = "MDWCPRDLWTQCFF [Phage-343]"
classification = "NOT MET"

[[record]]
binder = "MDWCPFDMWADCFF [Phage-391]"
classification = "MET"

[[record]]
binder = "QHWCPRDMWNDCYA [Phage-412]"
classification = "NOT MET"

